B1: FAM50A (parent)
chain: KALEILRKDFSELRSAGVEQLMYI

Variants of: B1
Experiment: protein stability index of a GFP-peptide fusion (GPS, HEK-293T) (PSI 1-6); higher = more stable;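 further: lentivirally expressed fusions sorted by FACS into six bins by GFP to DsRed ratio, PSI derived from sequencing read proportions per bin multiplied by bin number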
Settings: c terminus: a fixed tail appended
Would you please tag the item 1.0 when its protein stability index is 3 or above, and 0.0 when it is below?

Mutant designation: E12T
Classification: 1.0
--
Mutant designation: D9M
Classification: 0.0

Exercise: Please tell me: is the variant `D9E` at or over 3 in terms of protein stability index?
Key: 1.0

Exercise: Please tell me: is the variant `E19H` at or over 3 in terms of protein stability index?
Key: 1.0

Exercise: Please tell me: is the variant `E4I` at or over 3 in terms of protein stability index?
Key: 0.0
